Kindly supply the reported composite z-score values for the records listed here.
System Name: Pro-neuregulin-1, membrane-bound isoform (Homo sapiens)
Measurement Description: NRG1 binders on small-molecule microarrays, primary screen, psychiatric disease protein project, biochemical, small-molecule microarray, fluorescence 635/667 (AID 1075);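 further: score combines 667 nm spot fluorescence with signal to noise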
Condition Details: NRG1 binding, 635 nm fluorescence, higher = more signal
Just the number, please, no unit attached.

Need composite z-score of [N-]=[N+]=Nc1ccccc1[C@H]1OC(c2ccc(OCCCO)cc2)=N[C@@]1(CCS(=O)(=O)c1ccccc1)C(=O)NCCN1CCOCC1 , thanks.
1.35

Need composite z-score of COc1ccc(-c2cc3c(c(CCc4ccccc4)n2)[Si](C(C)C)(C(C)C)OC3)cn1 , thanks.
-0.352

Need composite z-score of Cc1cc(C)c(C(O)C2C=CC3C(=O)N(c4ccccc4)C(=O)C3N2Nc2ccc(C(C)C)cc2)c(C)c1 (centres undefined) , thanks.
1.91

Need composite z-score of COCCOC(=O)N1C(=O)[C@@]2(c3cc(C#CCNC(N)=O)ccc31)[C@H](C(=O)N1CCc3cc(OC)c(OC)cc3C1)[C@H]1C(=O)O[C@H](c3ccccc3)[C@H](c3ccccc3)N1[C@@H]2c1ccccc1OCCO , thanks.
0.202

Need composite z-score of CN(C)C(=O)[C@@]1(Cc2ccccc2CN=[N+]=[N-])N=C(c2ccc(OCCCO)cc2)O[C@H]1c1ccccc1CN=[N+]=[N-] , thanks.
1.64

Need composite z-score of CCCCCCCCCCC(O)C1C=CC2C(=O)N(C)C(=O)C2N1Nc1ccc([N+](=O)[O-])cc1[N+](=O)[O-] (centres undefined) , thanks.
1.12

Need composite z-score of CCOC(=O)C[C@H]1[C@H](OC(=O)c2ccc(C(=O)c3ccccc3)cc2)[C@@H](NC(=O)Cc2ccc(OC)cc2)c2cc(OCCCO)ccc2N1C(=O)c1ccccc1 , thanks.
-0.104

Need composite z-score of CCOC(=O)C1=C[C@@H](c2ccccc2)N(S(=O)(=O)c2ccc(C)cc2)[C@H]1c1ccccc1Cl , thanks.
0.264

Need composite z-score of COc1cc(OC)c(C(O)C2C=CC3C(=O)N(C)C(=O)C3N2NC(=O)OC(C)(C)C)cc1Br (centres undefined) , thanks.
1.85

Need composite z-score of COC(=O)[C@@]1(Cc2ccccc2)[C@H]2c3cc(C(=O)N(C)C)n(Cc4c(CO)[nH]cc(C)c4=O)c3C[C@H]2CN1C(=O)c1ccccc1 , thanks.
1.49

Need composite z-score of CC(C)[Si](C#CCCCC#N)(O[C@H](c1ccccc1)c1cn([C@H](CO)Cc2ccccc2)nn1)C(C)C , thanks.
1.44

Need composite z-score of COc1ccc(C(O)C2C=CC3C(=O)N(c4ccccc4)C(=O)C3N2Nc2ccc([N+](=O)[O-])cc2)cc1 (centres undefined) , thanks.
0.546

Need composite z-score of CCCC[C@@H](O)C1=C(COc2ccccc2)C[C@H]2C(=O)N(C)C(=O)[C@H]2[C@H]1CO , thanks.
-0.665

Need composite z-score of CC(C)(C)N1CC=CC23O[C@@H]4C=CCOC(=O)[C@@H]4[C@H]2C(=O)N(CCCCCCO)[C@@H]3C1=O (some centres undefined) , thanks.
-0.574

Need composite z-score of COc1ccc(C#Cc2ccc3c(c2)[C@]2(C(=O)N3)[C@H](c3ccc(O)cc3)N3[C@H](c4ccccc4)[C@H](c4ccccc4)OC(=O)[C@H]3[C@@H]2C(=O)O)cc1 , thanks.
0.555

Need composite z-score of C#CCN([C@@H](Cc1ccc(O)cc1)C(=O)OC)[C@@H](/C=C/C1CC1)[C@H](O)Cc1ccccc1 , thanks.
-0.737

Need composite z-score of CC(CO)N1C(=O)[C@@H]2[C@H]3C(=O)OCC=C[C@H]3OC23C=CCN(CCN2CCOCC2)C(=O)[C@@H]13 (some centres undefined) , thanks.
-0.718

Need composite z-score of C=CCNC(=O)[C@H]1[C@@H]2C(=O)O[C@@H](c3ccccc3)[C@@H](c3ccccc3)N2[C@@H](c2ccc(O)cc2)[C@]12C(=O)N(C(=O)OCCOC)c1ccccc12 , thanks.
1.33

Need composite z-score of CCCCCCc1nc(-c2cc(C)c(OC)c(C)c2)c(C)c2c1[Si](C(C)C)(C(C)C)OC2 , thanks.
-0.391

Need composite z-score of NC(=O)N1C(=O)C2C(C1=O)C1C=C(CCCO)C2C(c2cccs2)N1Cc1cccc(OC(F)(F)F)c1 (centres undefined) , thanks.
1.03

Need composite z-score of COC(=O)[C@@]1(Cc2ccc(OC)cc2)[C@H]2c3cc(C(=O)N4CCCC4)n(Cc4cccc5ccccc45)c3C[C@H]2CN1C(=O)c1ccccc1 , thanks.
1.42

Need composite z-score of COC(=O)[C@@]1(Cc2ccccc2)[C@H]2c3cc(C(=O)N(C)C)n(CCc4ccc(O)c(OC)c4)c3C[C@H]2CN1C(=O)c1ccccc1 , thanks.
0.258

Need composite z-score of Cc1ccc(S[C@]2(C(=O)NCC(F)(F)F)CC(=O)N(Cc3ccccc3)[C@@H]2c2ccc(CO)cc2I)cc1 , thanks.
1.82

Need composite z-score of [N-]=[N+]=Nc1ccccc1[C@H]1OC(c2ccc(OCCCO)cc2)=N[C@@]1(Cc1ccccc1)C(=O)N1CCCCC1 , thanks.
1.01

Need composite z-score of CCOC(=O)c1ccc(NC(=O)O[C@H]2[C@H](OC(=O)Nc3ccc4c(c3)OCO4)[C@H](OC(=O)Nc3ccc4c(c3)OCO4)[C@@H](OC)O[C@@H]2CO)cc1 , thanks.
0.898

Need composite z-score of CN1C(=O)C2C=CC(C(O)c3cccc(O)c3)N(Nc3ccccc3)C2C1=O (centres undefined) , thanks.
1.9

Need composite z-score of C=CCC(OC(C)=O)[C@@H]1[C@@H](N(Cc2cc3ccccc3o2)C(=O)Cc2ccc(F)cc2)c2cc(OCCCO)ccc2N1C(=O)c1ccc2ccccc2c1 (some centres undefined) , thanks.
-0.32

Need composite z-score of CN(C)CCCCNC(=O)[C@@H]1C[C@@H]2C(=O)N[C@@H](Cc3ccccc3)C(=O)N2[C@@H]1c1cccc(OCCO)c1 , thanks.
0.382

Need composite z-score of C=C[C@@H](OC)[C@H](OC(=O)Nc1ccc(SC)cc1)c1ccc(O)c(F)c1 , thanks.
1.25

----------
System Name: Torsin-1A-interacting protein 2 (Homo sapiens)
Measurement Description: LULL1 binders on small-molecule microarray, primary screen, cell lysate, human LULL1 lysate, 635/667 nm fluorescence (AID 1092);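 further: probe is lysate of COS7 cells overexpressing human LULL1; score merges per-feature 667 nm fluorescence with signal-to-noise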
Condition Details: hLULL1 lysate binding, 635 nm fluorescence, higher = more signal
Given measured composite z-score, output Y if it is greater than or equal to 3 and N if not.

I'd appreciate it if you could say whether COc1ccc(C#Cc2ccc3c(c2)[C@]2(C(=O)N3)[C@H](c3ccc(O)cc3)N3[C@H](c4ccccc4)[C@H](c4ccccc4)OC(=O)[C@H]3[C@@H]2C(=O)O)cc1 has composite z-score at least equal to 3.
Y

I'd appreciate it if you could say whether COC(=O)C(CC#Cc1ccc2c(c1)[C@]1(C(=O)N2)[C@H](c2ccccc2OCCO)N2[C@H](c3ccccc3)[C@H](c3ccccc3)OC(=O)[C@H]2[C@@H]1C(=O)NC[C@H](O)c1ccccc1)C(=O)OC has composite z-score at least equal to 3.
Y

I'd appreciate it if you could say whether C=CCOC(=O)[C@H]1[C@@H]2C(=O)O[C@@H](c3ccccc3)[C@@H](c3ccccc3)N2[C@@H](c2ccc(OCCOC(=O)[C@@H]3C[C@@H]4C(=O)N[C@@H](CCCCNC(C)=O)C(=O)N4[C@@H]3c3ccc(O)cc3)cc2)[C@]12C(=O)Nc1ccc(I)cc12 has composite z-score at least equal to 3.
N

----------
System: Plasmodium falciparum Sir2 (PF13_0152, Sir2A)
Measurement Description: pfSir2 binders on small-molecule microarrays, primary screen, biochemical, small-molecule microarray, 635 nm fluorescence (AID 1098);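 further: score merges spot fluorescence intensity with its signal-to-noise ratio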
Condition Details: small-molecule microarray binding, fluorescence 635 nm; higher = more signal
Kindly supply the reported composite z-score values for the records listed here.
Just the number, please, no unit attached.

Need composite z-score of CCOC(=O)C1=C[C@@H](c2ccccc2)N(S(=O)(=O)c2ccc(C)cc2)[C@H]1c1ccccc1Cl , thanks.
1.9

Need composite z-score of CC(C)[Si](C#C[Si](C(C)C)(C(C)C)C(C)C)(O[C@H](C)c1cn([C@H](CO)Cc2ccccc2)nn1)C(C)C , thanks.
0.107

Need composite z-score of CC(=O)NCCCC[C@@H]1NC(=O)[C@H]2C[C@@H](C(=O)NCCCC[N+](C)(C)C)[C@@H](c3cccc(OCCO)c3)N2C1=O , thanks.
0.0726

Need composite z-score of COC(=O)[C@@]1(Cc2ccc(OC)cc2)[C@H]2c3cc(C(=O)N(C)C)n(CCO)c3C[C@H]2CN1C(=O)c1ccccc1 , thanks.
0.137

This collection of values is drawn from PubChem BioAssay.
